# measured target: human ether-à-go-go-related gene (hERG) potassium channel (human);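 also: peak tail current of the secondary pulse compared with the same well before compound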
# experiment summary: primary screen, population patch clamp on CHO cells stably expressing hERG; higher = less effect of the substance
The whole screen tested about 310,000 compounds, of which about 14,000 (4.5%) showed an effect of 50% or more. The effect is printed as a negative number. This is one part of a sample in which strong results are shown more often than they occur.
Think of -30% as a floor: if hERG current change (%, negative = inhibition) at 10uM stands on it or above, it is t; beneath it, f.

Before answering, review these 8 worked examples.
INSERT INTO measurements (compound, discrete_label) VALUES
  ('O=C(COc1ccc(S(=O)(=O)N2CCCCC2)cc1)NCc1cccnc1', 't'),
  ('O=C(CCCOc1ccc(Br)cc1)NCCc1ccc(OC(F)F)cc1', 'f'),
  ('CCN(CC)CCN(C(=O)c1ccc(C(=O)c2ccccc2)cc1)c1nc2c(OC)cccc2s1.Cl', 'f'),
  ('O=C(CN1CCN(Cc2ccccc2)CC1)N1N=CCC1c1ccccc1 (stereo not drawn)', 't'),
  ('Cc1noc(C)c1COc1ccc(C(=O)N2CCN(c3ccccc3F)CC2)cc1', 'f'),
  ('CCOc1ccc(S(=O)(=O)N(C)c2ccc(OCC(=O)NCc3cccnc3)cc2)cc1', 't'),
  ('Cc1noc(C)c1COc1ccc(C(=O)N2CCN(c3ccccn3)CC2)cc1', 'f'),
  ('COc1ccc(CCNc2nc(N3CCOCC3)nc(N3CCOCC3)n2)cc1OC', 't');

Is reported hERG current change (%, negative = inhibition) at 10uM greater than or equal to -30% here: O=C1CCCC2=C1C(c1cccnc1)Nc1ccccc1N2 (stereo not drawn)
t

Is reported hERG current change (%, negative = inhibition) at 10uM greater than or equal to -30% here: "COCCNC(=O)COc1ccc(N(C)S(=O)(=O)c2ccc3ccccc3c2)cc1"
f

Is reported hERG current change (%, negative = inhibition) at 10uM greater than or equal to -30% here: "Cc1ccc2c(c1)C(c1ccccc1)=NCC(=O)N2"
t

---

# measured target: human ether-à-go-go-related gene (hERG) potassium channel (human, UniProt Q12809);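 also: peak tail current of the secondary pulse compared with the same well before compound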
# Sequence (Q12809 whole entry, looked up): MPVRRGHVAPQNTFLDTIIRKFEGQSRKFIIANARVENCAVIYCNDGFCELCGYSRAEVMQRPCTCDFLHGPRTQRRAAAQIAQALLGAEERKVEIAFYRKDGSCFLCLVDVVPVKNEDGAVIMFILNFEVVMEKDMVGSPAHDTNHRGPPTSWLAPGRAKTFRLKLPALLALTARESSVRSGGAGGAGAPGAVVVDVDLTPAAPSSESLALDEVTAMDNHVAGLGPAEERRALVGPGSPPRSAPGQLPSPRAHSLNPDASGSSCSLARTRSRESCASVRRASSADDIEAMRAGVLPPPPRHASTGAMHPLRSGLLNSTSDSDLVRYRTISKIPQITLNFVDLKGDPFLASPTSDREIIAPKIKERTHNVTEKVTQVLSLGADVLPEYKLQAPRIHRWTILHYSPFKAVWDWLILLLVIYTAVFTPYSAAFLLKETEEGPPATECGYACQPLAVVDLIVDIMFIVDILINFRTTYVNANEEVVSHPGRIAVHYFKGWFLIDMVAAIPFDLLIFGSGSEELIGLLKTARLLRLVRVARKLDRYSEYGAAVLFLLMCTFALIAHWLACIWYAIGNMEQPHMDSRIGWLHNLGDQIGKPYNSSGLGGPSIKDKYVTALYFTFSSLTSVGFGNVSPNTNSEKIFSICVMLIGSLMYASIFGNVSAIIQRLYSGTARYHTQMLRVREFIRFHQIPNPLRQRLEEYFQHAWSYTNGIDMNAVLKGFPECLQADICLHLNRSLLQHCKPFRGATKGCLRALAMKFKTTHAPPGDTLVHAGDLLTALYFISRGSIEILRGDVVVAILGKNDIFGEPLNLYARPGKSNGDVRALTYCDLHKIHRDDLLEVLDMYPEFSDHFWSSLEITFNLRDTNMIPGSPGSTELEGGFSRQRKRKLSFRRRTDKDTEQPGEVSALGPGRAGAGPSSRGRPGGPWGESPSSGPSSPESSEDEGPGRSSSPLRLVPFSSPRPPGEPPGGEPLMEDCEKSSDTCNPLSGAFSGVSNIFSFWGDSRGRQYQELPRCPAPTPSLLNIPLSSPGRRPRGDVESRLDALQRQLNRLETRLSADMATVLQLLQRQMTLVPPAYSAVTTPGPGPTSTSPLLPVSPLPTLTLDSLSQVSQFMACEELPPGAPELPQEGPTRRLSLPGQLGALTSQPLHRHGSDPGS
# experiment summary: primary screen, population patch clamp on CHO cells stably expressing hERG; higher = less effect of the substance
# Protocol: Briefly, Chinese hamster ovary (CHO) cells stably expressing the hERG channel were dislodged from tissue culture flasks and dispensed into PPC plates. […] During the recording, background leak currents were estimated by a 100 ms step to -80 mV from an initial holding potential of -70 mV and subtracted from the subsequent current measurement. The campaign was conducted in two phases using slight differences in recording protocol. […]
In all, about 310,000 compounds went through this assay and about 14,000 (4.5%) showed an effect of 50% or more. The effect is printed as a negative number. Shown is part of a subset that was picked to be rich in strong results.
Reported hERG current change (%, negative = inhibition) at 10uM values follow for various compounds
// note: answer is a bare numeric in %

Observe how each entry below is paired with its result.
INSERT INTO results (compound, val) VALUES
  ('CCc1nccn1CCC(=O)N1CCc2c([nH]c3ccccc23)C1CC(C)C (stereo not shown)', -53.9),
  ('COc1cccc(NC(=O)CN(C)C(=O)c2cc(S(=O)(=O)N3CCCCC3)ccc2Cl)c1', -34.7),
  ('CCn1nc(C)c(CN2CCc3c([nH]c4ccccc34)C2C(C)(C)C)c1C (stereo not shown)', -3.17),
  ('COc1cccc(NC(=O)CN(C)C(=O)c2cc(S(=O)(=O)NCc3ccccc3)ccc2C)c1', -71.1),
  ('CCC(/C=C1\Sc2ccc(OC)cc2N1CC)=C\c1sc2ccc(OC)cc2[n+]1CCCS(=O)(=O)[O-]', 15);

# input compound: "COc1ccc(NC(=O)CN(C)C(=O)c2cc(S(=O)(=O)N3CCCCCC3)ccc2OC)cc1" ; wanted: its hERG current change (%, negative = inhibition) at 10uM
-24

# input compound: "COc1ccc(S(=O)(=O)N2CCCCCC2)cc1C(=O)N(C)Cc1ccccc1F" ; wanted: its hERG current change (%, negative = inhibition) at 10uM
-53.2

# input compound: "COc1ccc(NS(=O)(=O)c2ccc(C)c(C(=O)N(C)CC(=O)Nc3cccc(OC)c3)c2)cc1" ; wanted: its hERG current change (%, negative = inhibition) at 10uM
-9.42
